Each recorded value in this set is attributed to patent US20240000872A1.

- System: Acinetobacter baumannii strains
- assayName: Antibiotic susceptibility test (CLSI disk diffusion test method, read per CLSI 2016); further: key: ‘S’ means susceptible; ‘I’ means intermediate; ‘R’ means resistant
- Assay type: cell-based
- conditionSet: host strain YMC/17/05/R1095
assayEndpoint: susceptibility category (S/I/R)

• C[C@@H](O)[C@H]1C(=O)N2C(C(=O)O)=C(SCCN=CN)C[C@H]12 = R
• C[C@@H](O)[C@H]1C(=O)N2C(C(=O)O)=C(S[C@@H]3CN[C@H](C(=O)N(C)C)C3)[C@H](C)[C@H]12 = R
• CCN1CCN(C(=O)N[C@@H](C(=O)N[C@@H]2C(=O)N3[C@@H]2SC(C)(C)[C@@H]3C(=O)O)c2ccccc2)C(=O)C1=O = R
• CN(C)c1ccc(O)c2c1C[C@H]1C[C@H]3[C@H](N(C)C)C(O)=C(C(N)=O)C(=O)[C@@]3(O)C(O)=C1C2=O = S
